experiment: gradient 5% acetonitrile 3 min, to 50% in 2 min, to 85% in 15 min, held 3 min, 100 µL/min; conditions: column: Zorbax Extend-C18 2.1 x 50 mm; eluents: water / acetonitrile, 0.1% formic acid
Readout Type: RP-LC retention time (s)
Give a bare numeral; the unit s is implied.

Answered cases to consult:
| Molecule | Test Value |
| --- | --- |
| COc1ccc(-c2ncc3c(n2)CCN(C(=O)Nc2ccc(Cl)cc2)C3)cc1 | 978 |
| O=C(NCCc1csc(-c2ccccc2)n1)C1CCN(C(=O)Cc2cccs2)CC1 | 794 |
| O=C1CC(c2noc(-c3cccc(F)c3)n2)CN1c1ccc(Cl)cc1 (stereo not given) | 1080 |
| CCS(=O)(=O)N1CCC(Cc2nncn2-c2ccccc2)C1 (stereo not given) | 631 |
| COc1ccc(NC(=O)CSc2nc(N3CCCCC3)nc3ccccc23)cc1 | 695 |
| Cc1nc(CSc2ncnc3sc4c(c23)CCC4)cs1 | 1040 |
| COCCNS(=O)(=O)c1cccc(-c2nc(-c3ccccc3)no2)c1 | 972 |
| CCc1nc(-c2cc(S(=O)(=O)Nc3cc(C)ccc3C)c(C)s2)cs1 | 1160 |
| CC1=C(c2ccc(C)cc2)S(=O)(=O)N=C1N1CCCN(C(=O)c2ccc(F)cc2)CC1 | 859 |

Now look at this one.
Request: Which RP-LC retention time value is on record for Cc1cccc(N2CCn3c2nc2c3c(=O)n(CC(=O)O)c(=O)n2C)c1 ?
Response: 689
